target: T1, Claudin 18.2 (CLDN18.2), expressed on CHOS-CLDN 18.2 / HEK293-CLDN 18.2 / HCC827-CLDN 18.2 cells (human, UniProt P56856-2 1-261); experiment: FACS, CHOS-CLDN18.2 cells, 0.313 µg/ml
T1 construct: whole, on cells; The species is not repeated for the CHOS-CLDN 18.2 cells; also called claudin-18A2
Answer each item with its documented FACS reading.
Give bare numbers.

Consider the reported FACS reading for these binders:
[
  {
    "BINDER": "QP024025 (antibody, human IgG1, V domains shown, also called IMAB362; 175D10(IMAB362)) VH: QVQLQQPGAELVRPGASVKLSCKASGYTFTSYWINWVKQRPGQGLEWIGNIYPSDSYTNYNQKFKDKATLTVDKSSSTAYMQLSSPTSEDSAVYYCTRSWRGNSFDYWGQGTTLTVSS VL: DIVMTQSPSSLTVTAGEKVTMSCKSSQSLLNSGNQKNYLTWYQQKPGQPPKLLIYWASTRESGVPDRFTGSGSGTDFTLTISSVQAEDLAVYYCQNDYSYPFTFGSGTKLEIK",
    "QUANTITY KIND": "FACS reading",
    "OBSERVED": 51000
  },
  {
    "BINDER": "QP14371433 (antibody, human IgG1, kappa, V domains shown, Humanized from QP190191; also called QP14331437) VH: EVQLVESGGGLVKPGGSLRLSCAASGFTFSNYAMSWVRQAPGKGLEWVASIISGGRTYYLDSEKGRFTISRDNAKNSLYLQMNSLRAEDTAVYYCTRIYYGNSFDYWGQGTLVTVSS VL: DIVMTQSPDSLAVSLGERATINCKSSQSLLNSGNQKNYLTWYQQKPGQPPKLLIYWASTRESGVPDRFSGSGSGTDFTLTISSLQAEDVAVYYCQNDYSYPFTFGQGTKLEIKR",
    "QUANTITY KIND": "FACS reading",
    "OBSERVED": 65900
  }
]

Look up and report measured FACS reading for this entry: QP14361435 (antibody, human IgG1, kappa, V domains shown, Humanized from QP190191) VH: EVQLVESGGGLVKPGGSLRLSCAASGFTFSNYAMSWVRQAPGKGLEWVSSIISGGRTYYLDSEKGRFTISRDNAKNSLYLQMNSLRAEDTAVYYCTRIYYGNSFDYWGQGTLVTVSS VL: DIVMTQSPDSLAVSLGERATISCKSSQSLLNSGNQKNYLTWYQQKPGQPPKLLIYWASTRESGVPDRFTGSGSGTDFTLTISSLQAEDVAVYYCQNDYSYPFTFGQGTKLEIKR 75900
